The measurements presented in this section are drawn from PubChem BioAssay AID1963854.

# Tested on: 186277-243-T-J2-PDC complex spheroid viability;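 further: spheroids exposed to compounds for seven days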
# METHOD_DESCRIPTION: Anticancer human tumor 186277-243-T-J2-PDC patient-derived colon adenocarcinoma cell line growth inhibition [POLQ]
# TEST_SETTINGS: curve of first compound; second compound 0.1 µM
pIC50: −log10 of the molar value.
MEASURED_QUANTITY: pIC50

A selection of reference data follows.
CC1COCCN1c1cc(-c2ccnn2C)c2ccnc(-c3ccn[nH]3)c2n1 (stereo unspecified) + COC1C(OC(N)=O)C(O)C(Oc2ccc3c(O)c(NC(=O)c4ccc(O)c(CC=C(C)C)c4)c(=O)oc3c2C)OC1(C)C : 7.34
CC(C)n1c(=O)n(C)c2cnc3cc(F)c(-c4ccc(OCCCN5CCCCC5)nc4)cc3c21 + Cc1cccc(N(C)C(=O)C2C(O)CCN2c2nc(C)cc(C(F)(F)F)c2C#N)c1 : < 5.00
CNCc1ccc(-c2[nH]c3cc(F)cc4c3c2CCNC4=O)cc1 + Cc1cccc(N(C)C(=O)C2C(O)CCN2c2nc(C)cc(C(F)(F)F)c2C#N)c1 : < 5.00

INPUT: Find the measured pIC50 of CC[C@@]1(O)C(=O)OCc2c1cc1n(c2=O)Cc2cc3c(CN(C)C)c(O)ccc3nc2-1 + Nc1ccc(C#CCN(C(=O)Cc2ncc(C(F)(F)F)cc2C(F)(F)F)c2ccc(F)cc2)nn1 and report it.
OUTPUT: < 7.00

INPUT: Find the measured pIC50 of CCc1cc2c(N3CCc4c(cc(Cn5ccnc5)cc4-c4cn(C)nc4C(F)(F)F)C3=O)cc(C)nc2c(OC)n1 + COC1C(OC(N)=O)C(O)C(Oc2ccc3c(O)c(NC(=O)c4ccc(O)c(CC=C(C)C)c4)c(=O)oc3c2C)OC1(C)C and report it.
OUTPUT: < 5.00

INPUT: Find the measured pIC50 of O=c1[nH]cc(F)c(=O)[nH]1 + Cc1cccc(N(C)C(=O)C2C(O)CCN2c2nc(C)cc(C(F)(F)F)c2C#N)c1 and report it.
OUTPUT: < 5.00

INPUT: Find the measured pIC50 of COc1cc2cc(C(=O)CCC(=O)O)sc2cc1OC + Cc1cccc(N(C)C(=O)C2C(O)CCN2c2nc(C)cc(C(F)(F)F)c2C#N)c1 and report it.
OUTPUT: < 5.00

INPUT: Find the measured pIC50 of CC1COCCN1c1cc(C2(O)CC3CCC(C2)O3)c2cnn(-c3ccn[nH]3)c2n1 (stereo unspecified) + COC1C(OC(N)=O)C(O)C(Oc2ccc3c(O)c(NC(=O)c4ccc(O)c(CC=C(C)C)c4)c(=O)oc3c2C)OC1(C)C and report it.
OUTPUT: 7.40

INPUT: Find the measured pIC50 of CC(C)n1c(=O)n(C)c2cnc3cc(F)c(-c4ccc(OCCCN5CCCCC5)nc4)cc3c21 + COC1C(OC(N)=O)C(O)C(Oc2ccc3c(O)c(NC(=O)c4ccc(O)c(CC=C(C)C)c4)c(=O)oc3c2C)OC1(C)C and report it.
OUTPUT: < 5.00

INPUT: Find the measured pIC50 of Nc1ccn(C2OC(CO)C(O)C2(F)F)c(=O)n1 (stereo unspecified) + COC1C(OC(N)=O)C(O)C(Oc2ccc3c(O)c(NC(=O)c4ccc(O)c(CC=C(C)C)c4)c(=O)oc3c2C)OC1(C)C and report it.
OUTPUT: > 7.50

INPUT: Find the measured pIC50 of C=CC(=O)N1CCN(c2nc(=O)n(-c3c(C)ccnc3C(C)C)c3nc(-c4c(O)cccc4F)c(F)cc23)C(C)C1 (stereo unspecified) + Nc1ccc(C#CCN(C(=O)Cc2ncc(C(F)(F)F)cc2C(F)(F)F)c2ccc(F)cc2)nn1 and report it.
OUTPUT: < 5.00
